Field: Cmax. Provide a value for each of the molecules that follow.
Experiment: Cmax in mouse at 100 mg/kg, po
Type: ADME, organism-based
Parameters: dose 100 mg/kg, route oral
Settings: in vivo
Answer in ng/mL, number only, no unit symbol.

Entry `CCS(=O)(=O)c1ccc(CC(=O)Nc2ccc(C(C)(C)C(=O)Nc3ccc(F)cc3F)c(F)c2)cc1` , Cmax reported as 17800

Entry `CCS(=O)(=O)c1ccc(CC(=O)Nc2ccc(C(C)(C)C(=O)Nc3cc(C#N)ccn3)c(F)c2)cc1` , Cmax reported as 8450

* * *

Test: AUC in rat at 0.5 mg/kg, iv
Assay type: ADME, organism-based
Settings: in vivo
Quantity name: AUC (ng·h/mL)
Answer in ng·h/mL, number only, no unit symbol.

Entry `CCS(=O)(=O)c1ccc(CC(=O)Nc2ccc(C(C)(C)C(=O)Nc3ccc(F)cc3F)c(F)c2)cc1` , AUC reported as 1930

Entry `CCS(=O)(=O)c1ccc(CC(=O)Nc2ccc(C(C)(C)C(=O)Nc3cc(C#N)ccn3)c(F)c2)cc1` , AUC reported as 556

Entry `CCS(=O)(=O)c1ccc(CC(=O)Nc2ccc(C(C)(C)C(=O)Nc3ccc(F)cc3)c(F)c2)cc1` , AUC reported as 986

* * *

Field: Efficacy. Provide a value for each of the compounds that follow.
Target: UniProt P51450
Sequence (whole entry): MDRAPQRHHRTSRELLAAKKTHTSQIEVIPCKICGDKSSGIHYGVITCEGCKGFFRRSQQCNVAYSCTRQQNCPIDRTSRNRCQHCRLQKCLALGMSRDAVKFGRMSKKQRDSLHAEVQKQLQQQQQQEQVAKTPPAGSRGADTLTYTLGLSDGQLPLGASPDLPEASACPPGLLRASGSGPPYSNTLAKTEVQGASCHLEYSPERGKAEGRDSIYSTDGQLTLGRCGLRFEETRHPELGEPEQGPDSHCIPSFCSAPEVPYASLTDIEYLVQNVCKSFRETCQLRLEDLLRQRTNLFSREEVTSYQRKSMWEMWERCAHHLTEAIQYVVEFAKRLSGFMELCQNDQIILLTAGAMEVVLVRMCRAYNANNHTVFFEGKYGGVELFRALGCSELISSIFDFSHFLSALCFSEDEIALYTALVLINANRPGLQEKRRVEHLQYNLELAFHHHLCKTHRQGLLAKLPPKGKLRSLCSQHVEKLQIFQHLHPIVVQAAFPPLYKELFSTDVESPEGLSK
Test: Transrepression of recombinant mouse GAL4-DBD fused RORgammat LBD expressed in HEK293 cells after 20 hrs by luciferase reporter gene assay
Assay type: cell-based
Answer in %, number only, no unit symbol.

Entry `CCS(=O)(=O)c1ccc(CC(=O)Nc2ccc(C(C)(C)C(=O)Nc3cc(F)ccn3)cc2)cc1` , tested on UniProt P51450, has a reported Efficacy of 86

Entry `CCS(=O)(=O)c1ccc(CC(=O)Nc2ccc(C(C)(C)C(=O)Nc3cccc(F)c3)cc2)cc1` , tested on UniProt P51450, has a reported Efficacy of 84

Entry `CCS(=O)(=O)c1ccc(CC(=O)Nc2ccc(C(C)(C)C(=O)Nc3ccncc3)cc2)cc1` , tested on UniProt P51450, has a reported Efficacy of 47

Entry `CCS(=O)(=O)c1ccc(CC(=O)Nc2ccc(C(C)(C)C(=O)N3CCC3)cc2)cc1` , tested on UniProt P51450, has a reported Efficacy of 52

Entry `CCS(=O)(=O)c1ccc(CC(=O)Nc2ccc(C(C)(C)C(=O)N3Cc4ccccc4C3)cc2)cc1` , tested on UniProt P51450, has a reported Efficacy of 84

Entry `CCS(=O)(=O)c1ccc(CC(=O)Nc2ccc(C(C)(C)C(=O)Nc3ccccc3C)cc2)cc1` , tested on UniProt P51450, has a reported Efficacy of 57

Entry `CCS(=O)(=O)c1ccc(CC(=O)Nc2ccc(C(C)(C)C(=O)Nc3cc(C#N)ccn3)c(F)c2)cc1` , tested on UniProt P51450, has a reported Efficacy of 88

Entry `CCS(=O)(=O)c1ccc(CC(=O)Nc2ccc(C(C)(C)C(=O)Nc3cccnc3)cc2)cc1` , tested on UniProt P51450, has a reported Efficacy of 63

Entry `CCS(=O)(=O)c1ccc(CC(=O)Nc2ccc(C(C)(C)C(=O)Nc3ncccc3F)cc2)cc1` , tested on UniProt P51450, has a reported Efficacy of 37

* * *

Test: Solubility of the compound in NaCl/HCl buffer at pH 1.2 by shake-flask method
Format: physicochemical
Field: solubility thermodynamic. Provide a value for each of the compounds that follow.
Answer in µM, number only, no unit symbol.

Entry `CCS(=O)(=O)c1ccc(CC(=O)Nc2ccc(C(C)(C)C(=O)Nc3ccc(F)cc3)c(F)c2)cc1` , solubility thermodynamic reported as 26

Entry `CCS(=O)(=O)c1ccc(CC(=O)Nc2ccc(C(C)(C)C(=O)Nc3cc(C(F)(F)F)ccn3)cc2)cc1` , solubility thermodynamic reported as 26

* * *

Molecular target: Nuclear receptor ROR-gamma (Mus musculus)
Experiment: Transrepression of recombinant mouse GAL4-DBD fused RORgammat LBD expressed in HEK293 cells after 20 hrs by luciferase reporter gene assay
Type: cell-based
Given measured Efficacy, output T if it is greater than or equal to 80% and F if not.

Check the entry `CCS(=O)(=O)c1ccc(CC(=O)Nc2ccc(C(C)(C)C(=O)Nc3cc(C#N)ccn3)cc2)cc1` : does Efficacy equal or exceed 80%?
T

Check the entry `CCS(=O)(=O)c1ccc(CC(=O)Nc2ccc(C(C)(C)C(=O)Nc3cccc(C(F)(F)F)n3)cc2)cc1` : does Efficacy equal or exceed 80%?
F

Check the entry `CCS(=O)(=O)c1ccc(CC(=O)Nc2ccc(C(C)(C)C(=O)Nc3ccccn3)cc2)cc1` : does Efficacy equal or exceed 80%?
F

Check the entry `CCS(=O)(=O)c1ccc(CC(=O)Nc2ccc(C(C)(C)C(=O)N3CC4(CCC4)C3)cc2)cc1` : does Efficacy equal or exceed 80%?
F

Check the entry `CCS(=O)(=O)c1ccc(CC(=O)Nc2ccc(C(C)(C)C(=O)N3CCCCC3)cc2)cc1` : does Efficacy equal or exceed 80%?
F

Check the entry `CCS(=O)(=O)c1ccc(CC(=O)Nc2ccc(C(C)(C)C(=O)Nc3ccc(F)cc3F)c(F)c2)cc1` : does Efficacy equal or exceed 80%?
T

Check the entry `CCS(=O)(=O)c1ccc(CC(=O)Nc2ccc(C(C)(C)C(=O)Nc3ccccc3)cc2)cc1` : does Efficacy equal or exceed 80%?
F

* * *

Assay: Tmax in rat at 1 mg/kg, po
Format: ADME, organism-based
Details: in vivo
Quantity name: Tmax (h)
Answer in h, number only, no unit symbol.

Entry `CCS(=O)(=O)c1ccc(CC(=O)Nc2ccc(C(C)(C)C(=O)Nc3cc(C#N)ccn3)c(F)c2)cc1` , Tmax reported as 1

Entry `CCS(=O)(=O)c1ccc(CC(=O)Nc2ccc(C(C)(C)C(=O)Nc3ccc(F)cc3F)c(F)c2)cc1` , Tmax reported as 4

Entry `CCS(=O)(=O)c1ccc(CC(=O)Nc2ccc(C(C)(C)C(=O)Nc3ccc(F)cc3)c(F)c2)cc1` , Tmax reported as 2.5

* * *

Field: IC50. Provide a value for each of the molecules that follow.
Target: Nuclear receptor ROR-alpha (Homo sapiens, UniProt P35398)
Sequence (P35398 whole entry): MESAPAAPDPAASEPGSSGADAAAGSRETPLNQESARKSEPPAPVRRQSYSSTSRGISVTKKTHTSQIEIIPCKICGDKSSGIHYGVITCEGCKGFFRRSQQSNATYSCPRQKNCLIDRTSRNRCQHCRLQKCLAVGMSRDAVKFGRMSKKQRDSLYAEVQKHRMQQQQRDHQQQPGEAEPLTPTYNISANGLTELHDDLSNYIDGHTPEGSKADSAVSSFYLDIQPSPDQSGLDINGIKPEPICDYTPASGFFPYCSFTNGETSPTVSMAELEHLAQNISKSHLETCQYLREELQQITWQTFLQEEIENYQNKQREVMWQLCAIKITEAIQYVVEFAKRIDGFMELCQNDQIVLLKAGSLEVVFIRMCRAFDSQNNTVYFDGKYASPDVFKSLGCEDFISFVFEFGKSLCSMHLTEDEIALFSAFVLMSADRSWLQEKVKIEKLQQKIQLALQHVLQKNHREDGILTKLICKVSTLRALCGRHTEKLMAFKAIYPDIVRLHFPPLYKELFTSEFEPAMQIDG
Test: Displacement of [3H]T0901317 from recombinant human GST-fused RORalpha LBD after 1 to 4 hrs by microbeta scintillation counting method

Entry `CCS(=O)(=O)c1ccc(CC(=O)Nc2ccc(C(C)(C)C(=O)Nc3ccc(F)cc3)c(F)c2)cc1` , IC50 reported as > 10 µM

Entry `CCS(=O)(=O)c1ccc(CC(=O)Nc2ccc(C(C)(C)C(=O)Nc3cc(C#N)ccn3)c(F)c2)cc1` , IC50 reported as > 10 µM

Entry `CCS(=O)(=O)c1ccc(CC(=O)Nc2ccc(C(C)(C)C(=O)Nc3ccc(F)cc3)cc2)cc1` , IC50 reported as > 10 µM

Entry `CCS(=O)(=O)c1ccc(CC(=O)Nc2ccc(C(C)(C)C(=O)Nc3ccc(F)cc3F)c(F)c2)cc1` , IC50 reported as > 10 µM
